- system.name: hNPY2R (Homo sapiens, UniProt P49146)
- Construct: expressed in transfected cells; host or cells: HEK-293 cells carrying a CRE-luciferase reporter gene
- Sequence (P49146 1-381): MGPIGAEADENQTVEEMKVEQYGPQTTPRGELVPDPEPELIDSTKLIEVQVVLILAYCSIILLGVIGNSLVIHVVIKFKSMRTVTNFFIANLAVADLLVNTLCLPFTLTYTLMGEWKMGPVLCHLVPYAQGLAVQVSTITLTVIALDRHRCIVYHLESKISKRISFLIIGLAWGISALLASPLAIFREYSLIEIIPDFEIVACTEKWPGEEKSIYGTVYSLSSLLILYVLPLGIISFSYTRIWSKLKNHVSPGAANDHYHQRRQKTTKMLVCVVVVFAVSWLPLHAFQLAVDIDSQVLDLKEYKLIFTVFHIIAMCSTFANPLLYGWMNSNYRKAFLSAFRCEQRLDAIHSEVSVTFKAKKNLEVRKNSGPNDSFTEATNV
- procedure.details: hNPY2R CreLuc reporter gene assay in 0.5% and 100% plasma
- Format: cell-based
- measurement.parameters: CreLuc reporter gene assay, 0.5% human plasma; read-out: hNPY2R 0.5% hP
pEC50: −log10 of the molar value. Starred links: 1 amine or outer side, 2 acyl side, 3 side chain; linkers in the order of their positions; H or OH if unused. Positions of bridges follow the written chain, without caps; N, C: chain ends. Non-standard residues stand in square brackets, D forms with d. Groups on a side chain read outwards from the residue. Chains are numbered I, II in the order given. *: point of attachment. C20 diacid = O=C(O)CCCCCCCCCCCCCCCCCCC(=O)*; C18 diacid = O=C(O)CCCCCCCCCCCCCCCCC(=O)*; γGlu = O=C(O)[C@H](CCC(=O)[*:2])N[*:1]; εLys = N[C@@H](CCCCN[*:1])C(=O)[*:2]; AEEA = NCCOCCOCC(=O)O; Aib = CC(C)(N)C(=O)O

{"substance": "H-Y[Aib]EGTFTSDYSI[Aib]LEKQAQ[Aib]AFVQWLIK([γGlu-γGlu-γGlu-γGlu-γGlu-C18 diacid])GGPESPASLRHYYNWLTRQRY-NH2 [Compound 12]", "pEC50": 7.92}
{"substance": "I: H-Y[Aib]EGTFTSDYSI[Aib]LEKQAQ[Aib]AFVQWLIKGGPESGASLRHYYNWLTRQRY-NH2 / II: {C18 diacid}-EEEEE[εLys] (amide I:28-II:C) [Compound 63]", "pEC50": 7.82}
{"substance": "H-Y[Aib]EGTFTSDYSI[Aib]LEKQAQ[Aib]AFVQWLIK([AEEA-AEEA-γGlu-γGlu-γGlu-C18 diacid])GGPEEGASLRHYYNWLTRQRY-NH2 [Compound 144]", "pEC50": 7.80}
{"substance": "H-Y[Aib]EGTFTSDYSI[Aib]LEKQAQ[Aib]AFVEWLIK([AEEA-AEEA-γGlu-γGlu-γGlu-γGlu-C18 diacid])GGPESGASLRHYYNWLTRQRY-NH2 [Compound 163]", "pEC50": 7.67}
{"substance": "H-Y[Aib]EGTFTSDYSI[Aib]LEKQAQ[Aib]AFVEWLIK([εLys-γGlu-γGlu-γGlu-γGlu-γGlu-γGlu-C20 diacid])GGPSSYVSLRHYYNWLTRQRY-NH2 [Compound 40]", "pEC50": 7.92}
{"substance": "H-Y[Aib]EGTFTSDYSI[Aib]LEKQAE[Aib]AFVQWLIK([εLys-γGlu-γGlu-γGlu-γGlu-γGlu-C18 diacid])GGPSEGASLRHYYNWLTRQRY-NH2 [Compound 138]", "pEC50": 7.74}
{"substance": "H-Y[Aib]EGTFTSDYSI[Aib]LEAQAQ[Aib]AFVEWLIK([εLys-γGlu-γGlu-γGlu-γGlu-γGlu-γGlu-C20 diacid])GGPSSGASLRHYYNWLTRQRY-NH2 [Compound 102]", "pEC50": 7.60}
{"substance": "H-Y[Aib]EGTFTSDYSI[Aib]LDKQAQ[Aib]AFVEWLIK([εLys-γGlu-γGlu-γGlu-γGlu-γGlu-γGlu-C20 diacid])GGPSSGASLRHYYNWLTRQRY-NH2 [Compound 128]", "pEC50": 7.61}
{"substance": "H-Y[Aib]EGTFTSDYSI[Aib]LEKQAQ[Aib]AFVEWLIK([AEEA-AEEA-γGlu-γGlu-γGlu-γGlu-γGlu-C20 diacid])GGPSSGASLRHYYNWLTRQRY-NH2 [Compound 229]", "pEC50": 7.97}
{"substance": "H-Y[Aib]EGTFTSDYSI[Aib]LEKQAQ[Aib]AFVEWLIK([γGlu-γGlu-γGlu-γGlu-C18 diacid])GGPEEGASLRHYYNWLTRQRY-NH2 [Compound 272]", "pEC50": 7.62}
